test: Human HepG2 cell viability assay in 384 well format; type: toxicity, cell-based; design: dose 125 nL, time 70.5 hour; concentration not given beside the values; settings: HepG2 cells, read-out: Inhibition
Reported cytotoxicity at 70.5 h values for the following compounds.
MEASURED_ATTRIBUTE: cytotoxicity at 70.5 h (%)

{"columns": ["COMPOUND", "MEASURED_ATTRIBUTE", "NUMERIC_RESULT"],
 "data": [
  ["CNC(=O)Cc1cc2nccc(-c3c(OC)cccc3OC)n2n1", "cytotoxicity at 70.5 h", -7.19],
  ["Cc1cc(C)c(C(=O)N2CCC3(CCCNC3)C2)cc1C (configuration not stated)", "cytotoxicity at 70.5 h", 25.6],
  ["CC(C)c1ccc(C(O)CN2CCN(Cc3nccn3C)CC2)cc1 (configuration not stated)", "cytotoxicity at 70.5 h", -3.6],
  ["Cc1nc(C2(O)CCCNCC2)sc1CCOc1ccc(Cl)cc1 (configuration not stated)", "cytotoxicity at 70.5 h", 31.6],
  ["CN1CCC(NC(=O)CCCc2cc(Cl)sc2Cl)C1=O (configuration not stated)", "cytotoxicity at 70.5 h", -9.29],
  ["Cc1nccn1Cc1nnc(C2CCCN(c3ncccc3F)C2)n1C (configuration not stated)", "cytotoxicity at 70.5 h", -17.5],
  ["O=C(NCC1CC1)[C@H]1C[C@H]2OCC[C@H]2N(Cc2ccsc2)C1", "cytotoxicity at 70.5 h", -4.19],
  ["O=C(NCC1(c2ccc(F)cc2)CCC1)N1CCC2(C1)OCCO2", "cytotoxicity at 70.5 h", -8.6],
  ["Cc1cc(C(=O)N2C[C@@H](CN(C)CCN(C)C)[C@@H](CO)C2)nc(C)n1", "cytotoxicity at 70.5 h", 21.1],
  ["CCOC(=O)N1CCN(CC(=O)Nc2nnc(C)s2)CC1", "cytotoxicity at 70.5 h", -6.46],
  ["CC(C)(N)C(=O)N1CCCC1c1cncc(Oc2ccc(F)cc2)n1 (configuration not stated)", "cytotoxicity at 70.5 h", 0.148],
  ["COc1cccc(CNC(Cc2cccs2)c2nc(C)c(C)s2)c1OC (configuration not stated)", "cytotoxicity at 70.5 h", -1.23],
  ["O=C(c1ccco1)N1CCOCC2(CCN(C3CCOCC3)C2)C1 (configuration not stated)", "cytotoxicity at 70.5 h", -8.45],
  ["CN(C)C(=O)n1c(C(=O)NC(C)(C)CO)cc2c1c1ccccc1n2C", "cytotoxicity at 70.5 h", -6.99],
  ["Cc1ncc(CN2CCC3(CCCN(CC4CCC4)C3)C2)cn1 (configuration not stated)", "cytotoxicity at 70.5 h", -4.13],
  ["Cc1nn(C)c(Oc2ccc(Cl)cc2)c1CN1CCOC(CN)C1 (configuration not stated)", "cytotoxicity at 70.5 h", -2.25],
  ["O=c1[nH]nc2c(S(=O)(=O)N3CCCCC3)cccn12", "cytotoxicity at 70.5 h", -0.253],
  ["Cn1c(CN2CCCC2)nnc1C1CCCN(C(=O)CN2CCCC2)C1 (configuration not stated)", "cytotoxicity at 70.5 h", 2.51],
  ["CNC(=O)C1CN(C(=O)c2ccccc2)Cc2cn(C)nc21 (configuration not stated)", "cytotoxicity at 70.5 h", 26.9],
  ["CC(=O)N1CCN(C(=O)c2sccc2Br)CC1", "cytotoxicity at 70.5 h", 15.1],
  ["CC(CC(=O)N1CCCS1(=O)=O)c1ccccc1C(F)(F)F (configuration not stated)", "cytotoxicity at 70.5 h", 3.27],
  ["c1cnnc(N[C@@H]2CC[C@@H]3CN(Cc4ccc5[nH]ccc5c4)C[C@@H]32)c1", "cytotoxicity at 70.5 h", 2.98],
  ["CC(O)CCN(C)c1nc2ccccc2c(=O)[nH]1 (configuration not stated)", "cytotoxicity at 70.5 h", -6.49],
  ["CCOc1cc(C(=O)n2cccn2)cc(OCC)c1OCC", "cytotoxicity at 70.5 h", -6.27],
  ["COc1cccc(S(=O)(=O)NC(=O)CC2CCCO2)c1 (configuration not stated)", "cytotoxicity at 70.5 h", 21.5],
  ["O=C(Cn1ccc2cc(Br)ccc21)NCc1ccc(C(=O)O)cc1", "cytotoxicity at 70.5 h", -27.5],
  ["Cc1cccc(-c2noc(CN3CCCC3Cn3cccn3)n2)c1 (configuration not stated)", "cytotoxicity at 70.5 h", 8.86],
  ["CN(C)c1cncc(C2CCN(CC3(O)CCCCC3)CC2)n1", "cytotoxicity at 70.5 h", 25.1],
  ["COCCN1CCCC(O)(CN2CCN(Cc3ccncc3)CC2)C1=O (configuration not stated)", "cytotoxicity at 70.5 h", -8.23],
  ["O=C(NC[C@]1(O)CN(Cc2ccccc2F)C[C@H]1O)c1cscn1", "cytotoxicity at 70.5 h", -8.78],
  ["Cc1ccc(C(=O)N2CCCN(Cc3cccs3)CC2)c(=O)[nH]1", "cytotoxicity at 70.5 h", -0.458],
  ["Cc1cscc1C(=O)NC1CC(=O)N(C(C)C)C1=O (configuration not stated)", "cytotoxicity at 70.5 h", -4.89]
]}

Recorded values, source ChEMBL document CHEMBL3507680.
